# credit: PubChem BioAssay (NCATS)

Test system: CP335
assay-remarks: qHTS profiling for inhibitors of Plasmodium falciparum proliferation (AID 504749); further: nearly all actives have a fitted effect of over 60% in size
details: P. falciparum in erythrocytes, SYBR Green DNA, 72 h; series mostly up to 28.7 µM
Inconclusive results are not listed. Calls of active or inactive are those of the source. The call rests on the fitted dose curve; in most records, active means well fitted inhibition curve with a large enough effect; inconclusive means small, poorly fitted or top-dose-only effect; inactive means flat fitted curve, though single readings scatter.
Possible outcomes: active, inactive

>  <molecule>
CC[C@@H]1/C=C(\C)C[C@H](C)C[C@H](OC)[C@H]2O[C@@](O)(C(=O)C(=O)N3CCCC[C@H]3C(=O)O[C@H](/C(C)=C/[C@@H]3CC[C@H](Cl)[C@H](OC)C3)[C@H](C)[C@@H](O)CC1=O)[C@H](C)C[C@@H]2OC

>  <assigned-label>
inactive

$$$$
>  <molecule>
CCC1OC(=O)C[C@H](O)C(C)[C@@H](O[C@@H]2OC(C)C(O)C(N(C)C)C2O)C(CCN2CC(C)CC(C)C2)CC(C)C(=O)/C=C/C(C)=C\[C@@H]1COC1OC(C)C(O)C(OC)C1OC (stereo partly specified)

>  <assigned-label>
active

$$$$
>  <molecule>
NC(C(=O)O)c1ccc(O)cc1 (stereo unspecified)

>  <assigned-label>
inactive

$$$$
>  <molecule>
OCC(O)C(O)C(O)C(O)CO (stereo unspecified)

>  <assigned-label>
inactive

$$$$
>  <molecule>
O=C(O)CC(O)CC(O)/C=C/c1c(C2CC2)nc2ccccc2c1-c1ccc(F)cc1 (stereo unspecified)

>  <assigned-label>
inactive

$$$$
>  <molecule>
CC[C@@]1(O)C[C@H](O[C@H]2C[C@@H](N(C)C)[C@@H](O[C@H]3C[C@@H](O)[C@@H](O[C@H]4CCC(=O)[C@@H](C)O4)[C@@H](C)O3)[C@@H](C)O2)c2c(cc3c(c2O)C(=O)c2c(O)cccc2C3=O)[C@H]1C(=O)OC

>  <assigned-label>
active

$$$$

---

// activity change, negative = inhibition lookup, one value per entry
assay-remarks: NFAT Signaling Pathway (AID 444);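 further: carbachol stimulus at about its EC50 of 1 µM final; on the % scale 0 is the no-effect control and ±100 the full control effect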
details: Jurkat NFAT-bla M1, carbachol, beta-lactamase ratio, 5 h; at 17.2 µM (top of the series) unless noted
Inconclusive results are not listed. Activity calls are given as the source filed them. The call rests on the fitted dose curve; in most records, active means well fitted curve in either direction with a large enough effect (not every such curve was filed as active); inconclusive means small, poorly fitted or top-dose-only effect, or another doubt; inactive means flat fitted curve, though single readings scatter.

>  <molecule>
Nc1[nH]nc2nc(NCc3ccccc3)c3c(c12)CCN(Cc1ccccc1)C3

>  <activity change, negative = inhibition>
0.244% (inactive)

$$$$
>  <molecule>
CN1CCc2c(C#N)c(N3CCCCC3)nc(NCc3ccccc3)c2C1

>  <activity change, negative = inhibition>
-7.69% (inactive)

$$$$
>  <molecule>
Cc1cccc(N2C(=O)CC(N3CCN(Cc4ccc(Cl)cc4)CC3)C2=O)c1 (stereo not given)

>  <activity change, negative = inhibition>
6.12% (inactive)

$$$$
>  <molecule>
COc1cc([C@H]2c3cc4c(cc3[C@@H](O)[C@@H]3COC(=O)[C@H]23)OCO4)cc(OC)c1OC

>  <activity change, negative = inhibition>
-22.1% [at 38 µM] (inactive)

$$$$
>  <molecule>
CCC(NC(=O)Nc1nccs1)(C(F)(F)F)C(F)(F)F

>  <activity change, negative = inhibition>
-12.7% (inactive)

$$$$
>  <molecule>
O=C(CCN1CCc2ccccc21)c1ccc2c(c1)OCCO2

>  <activity change, negative = inhibition>
-15.2% (inactive)

$$$$
>  <molecule>
C=C1[C@@H](C)C2[C@H](Cc3ccccc3)NC(=O)[C@]23OC(=O)CC[C@H](O)CCC[C@H](C)C/C=C/[C@H]3[C@@H]1O (stereo not given in full)

>  <activity change, negative = inhibition>
-7.27% (inactive)

$$$$
>  <molecule>
CCOC(=O)c1[nH]c2ccccc2c1N=CN(CC)CC

>  <activity change, negative = inhibition>
-19.2% (inactive)

$$$$
>  <molecule>
CC1(C)NC(=O)N(CC(O)COc2ccccc2C(=O)Nc2ccccc2)C1=O (stereo not given)

>  <activity change, negative = inhibition>
9.58% (inactive)

$$$$
>  <molecule>
C=C1C2(C(=O)Nc3nccs3)CCC(C2)C1(C)C (stereo not given)

>  <activity change, negative = inhibition>
25.1% (inactive)

$$$$

---

// activity change, negative = inhibition lookup, one value per entry
assay-remarks: NFAT Signaling Pathway (AID 444);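 further: carbachol stimulus at about its EC50 of 1 µM final; on the % scale 0 is the no-effect control and ±100 the full control effect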
details: Jurkat NFAT-bla M1, carbachol, beta-lactamase ratio, 5 h; at 17.2 µM (top of the series) unless noted
Inconclusive results are not listed.
reported-endpoint: activity change, negative = inhibition (%)

>  <compound>
C=C(Br)CN1CCN(CC(=C)Br)CC1

>  <recorded-number>
-10.3

$$$$
>  <compound>
CC1(C)Cc2c(sc3ncn4nc(-c5ccco5)nc4c23)CO1

>  <recorded-number>
8.04

$$$$
>  <compound>
CCc1cc(=O)oc2cc(C)c(CN3CCCCC3)c(O)c12

>  <recorded-number>
-13.9

$$$$
>  <compound>
Cc1ccc(/C=N/n2nnnc2N)o1

>  <recorded-number>
-0.388

$$$$
>  <compound>
CCOC(=O)N1CCN(C2OC(=O)c3ccccc32)CC1 (configuration not stated)

>  <recorded-number>
27.2

$$$$
>  <compound>
C=CCn1c(SCC(=O)c2ccccc2)nnc1-c1ccc2c(c1)OCO2

>  <recorded-number>
16.5

$$$$
>  <compound>
C=CCn1c(=S)[nH]c2ccccc2c1=O

>  <recorded-number>
10.1

$$$$
>  <compound>
COc1ccc(OC)c(C2/C(=C(/O)c3ccccc3)C(=O)C(=O)N2Cc2ccco2)c1 (configuration not stated)

>  <recorded-number>
6

$$$$
>  <compound>
O=C(C(c1ccccc1)N1CCOCC1)N1CCOCC1 (configuration not stated)

>  <recorded-number>
7.74

$$$$
>  <compound>
Cc1ccc(N(CC(=O)O)C2SC(=O)NC2=O)cc1 (configuration not stated)

>  <recorded-number>
0.868

$$$$
>  <compound>
Cn1c(OCc2cccnc2)nc2c1c(=O)n(Cc1ccccc1)c(=O)n2C

>  <recorded-number>
-1.28

$$$$
>  <compound>
CCCCc1c(C)nn(-c2nnc3c4ccccc4n(C)c3n2)c1C

>  <recorded-number>
-28.4

$$$$
>  <compound>
O=C(CC(c1ccco1)S(=O)(=O)c1ccccc1)c1ccc(F)cc1 (configuration not stated)

>  <recorded-number>
-1.61

$$$$
>  <compound>
CC1(C)Cc2c(C#N)c(NCC3CCCO3)nc(-c3ccco3)c2CO1 (configuration not stated)

>  <recorded-number>
5.63

$$$$
>  <compound>
CC(=O)NC1(C(F)(F)F)C(=O)Nc2c1c(=O)n(C)c(=O)n2C (configuration not stated)

>  <recorded-number>
7.97

$$$$
>  <compound>
COC(=O)c1ccccc1NC(=O)CSc1nnc(-c2ccncc2)o1

>  <recorded-number>
4.54

$$$$
>  <compound>
CC(C)(C)c1ccc(O)c(N)c1

>  <recorded-number>
-5.9

$$$$
>  <compound>
COc1ccc(CC(=O)Nc2cccc(-c3nnc(-c4ccco4)o3)c2)cc1

>  <recorded-number>
29.9

$$$$
>  <compound>
CCOc1ccc(-c2nnc3sc(-c4c(OC)cccc4OC)nn23)cc1

>  <recorded-number>
-3.46

$$$$
>  <compound>
Cc1ccc2[nH]c3c(c2c1)CN(C(=O)CN1CC(C)OC(C)C1)CC3 (configuration not stated)

>  <recorded-number>
-2.75

$$$$
>  <compound>
COCCN(CCOC)C(=O)C12CCC(C)(C(=O)C1)C2(C)C (configuration not stated)

>  <recorded-number>
8.02

$$$$
>  <compound>
COC(=O)c1ccn(C(=O)c2ccc(Cl)cc2)n1

>  <recorded-number>
-8.81

$$$$
>  <compound>
COC(=O)C1=C(N)Oc2cc(C)[nH]c(=O)c2C1c1ccncc1 (configuration not stated)

>  <recorded-number>
2.47

$$$$
>  <compound>
CN(C)C=C1C(=O)c2ccccc2C1=O

>  <recorded-number>
3.97

$$$$
>  <compound>
Cn1c(Cn2cnc(Cl)c2Cl)nc2ccccc21

>  <recorded-number>
-0.211

$$$$
>  <compound>
Cc1cc(NC(=O)CSc2nc(-c3cccnc3)ccc2C#N)no1

>  <recorded-number>
6.09

$$$$
>  <compound>
CN=c1sc2ccccc2n1CC(O)COc1ccccc1 (configuration not stated)

>  <recorded-number>
-17.8

$$$$
>  <compound>
COc1ccc(NC(=O)CSC2=C(C#N)C(c3ccco3)C3=C(CCCC3=O)N2)c(OC)c1 (configuration not stated)

>  <recorded-number>
-6.5

$$$$
>  <compound>
CNC(=O)c1cc2ccccc2o1

>  <recorded-number>
-13.4

$$$$
>  <compound>
COc1cc(C2C(C(=O)c3sc(C)nc3C)=C(O)C(=O)N2CCN(C)C)cc(OC)c1OC (configuration not stated)

>  <recorded-number>
1.9

$$$$
>  <compound>
COc1cc(C(=O)Nc2ccc(O)cc2C(=O)O)ccc1OC(C)=O

>  <recorded-number>
22.4

$$$$
>  <compound>
CCCCc1cc(=O)oc2c(CN3CCCC3)c(O)ccc12

>  <recorded-number>
2.24

$$$$
>  <compound>
Cc1ccc(-c2nnc(-c3cccc(Br)c3)o2)cc1

>  <recorded-number>
-11.6

$$$$
>  <compound>
C=C(C)C1Cc2c(C)nn(-c3nc(C)cc(C)n3)c2C1 (configuration not stated)

>  <recorded-number>
10.4

$$$$
>  <compound>
C(=N\n1cnnc1)/c1cccnc1

>  <recorded-number>
-13.4

$$$$
>  <compound>
CC1(C)CC(=O)C(C2=NC(C)(C)Cc3ccccc32)=C(O)C1

>  <recorded-number>
2.48

$$$$
>  <compound>
Cc1ccc(Oc2nc3c(c(=O)n(Cc4ccccc4F)c(=O)n3C)n2C)cc1

>  <recorded-number>
11.5

$$$$
>  <compound>
CC1(C)Cc2c(C#N)c(N3CCN(C(=O)c4ccccc4)CC3)nc(-c3ccco3)c2CS1

>  <recorded-number>
-24.6

$$$$
>  <compound>
CCc1ccc(NC(=O)CSC2=C(C#N)C(c3ccco3)C3=C(CCCC3=O)N2)cc1 (configuration not stated)

>  <recorded-number>
-17.6

$$$$
>  <compound>
CCCOc1ccc(N2C(=O)CC(N(CCC)C(=O)CCC(=O)O)C2=O)cc1 (configuration not stated)

>  <recorded-number>
18.7

$$$$
>  <compound>
COc1ccc2cnn(-c3ccccc3C)c(=O)c2c1OC

>  <recorded-number>
-6.03

$$$$
>  <compound>
Cc1ccccc1OCC(O)Cn1c(N2CCN(c3ccccc3)CC2)nc2c1c(=O)[nH]c(=O)n2C (configuration not stated)

>  <recorded-number>
-4.3

$$$$
>  <compound>
CCC(=O)Nc1nc(C)c(Oc2ccccc2)c(=O)[nH]1

>  <recorded-number>
9.01

$$$$
>  <compound>
O=C1OC(Nc2ccc(Br)cn2)c2ccccc21 (configuration not stated)

>  <recorded-number>
16.3

$$$$
>  <compound>
CCCOc1ccc(C2/C(=C(/O)c3ccccc3)C(=O)C(=O)N2CCCN(C)C)cc1OC (configuration not stated)

>  <recorded-number>
3.58

$$$$
>  <compound>
c1ccc(OCc2nn3c(-c4cccnc4)nnc3s2)cc1

>  <recorded-number>
2.29

$$$$
>  <compound>
COc1ccc(C2=Nn3c(nnc3-c3ccccn3)SC2)cc1OC

>  <recorded-number>
23.1

$$$$
